- target_of_assay: SSTR4 (Homo sapiens)
- Construct: host or cells: CHO-K1
- assay_details: Inhibition of forskolin stimulated cAMP in CHO-K1 cells overexpressing SSTR4
- Type: cell-based
- measurement_context: read-out: SSTR4 Activity pEC50 (converted)
value_type: EC50 (µM)

Known EC50 results, listed for orientation:
{"compound": "CC(C)(COc1ncccc1C(F)F)NC(=O)CC12CCCN1CCC2", "target_of_assay": "SSTR4 (Homo sapiens)", "EC50 [µM]": 0.251}
{"compound": "Cc1cc2ccccc2c(C(C)(C)NC(=O)C[C@H]2CCCN2C)n1", "target_of_assay": "SSTR4 (Homo sapiens)", "EC50 [µM]": 0.00501}
{"compound": "Cc1cccnc1OCC1(NC(=O)CC2CCCCN2C)CC1 (stereo not drawn)", "target_of_assay": "SSTR4 (Homo sapiens)", "EC50 [µM]": 0.251}
{"compound": "CN1CCC[C@H]1CC(=O)NC(C)(C)c1cccc(F)c1Cl", "target_of_assay": "SSTR4 (Homo sapiens)", "EC50 [µM]": 0.0631}
{"compound": "CN1CCCCC1CC(=O)NC(C)(C)c1nn(C)c2ccccc12 (stereo not drawn)", "target_of_assay": "SSTR4 (Homo sapiens)", "EC50 [µM]": 0.00631}

[a] CN1CCC(F)(F)C1CC(=O)NC(C)(C)c1nccc2ccccc12 (stereo not drawn)
[b] C[C@H](NC(=O)C[C@H]1CCCN1C)c1ccc(Cl)cc1
[c] Cc1cccc2c(C(C)(C)NC(=O)CC3CCCCN3C)noc12 (stereo not drawn)
[d] CC[C@@H](CN1CCC1)C(=O)N[C@H](c1ccccc1OC)C(F)F
Provide the items ranked by increasing EC50. List the labels according to the requested ordering.
d, c, b, a
(d: 0.001 µM, c: 0.00316 µM, b: 0.501 µM, a: 1 µM)

###

- target_of_assay: SSTR4 (Homo sapiens, UniProt P31391)
- Construct: host or cells: CHO-K1
- Sequence (P31391 whole entry): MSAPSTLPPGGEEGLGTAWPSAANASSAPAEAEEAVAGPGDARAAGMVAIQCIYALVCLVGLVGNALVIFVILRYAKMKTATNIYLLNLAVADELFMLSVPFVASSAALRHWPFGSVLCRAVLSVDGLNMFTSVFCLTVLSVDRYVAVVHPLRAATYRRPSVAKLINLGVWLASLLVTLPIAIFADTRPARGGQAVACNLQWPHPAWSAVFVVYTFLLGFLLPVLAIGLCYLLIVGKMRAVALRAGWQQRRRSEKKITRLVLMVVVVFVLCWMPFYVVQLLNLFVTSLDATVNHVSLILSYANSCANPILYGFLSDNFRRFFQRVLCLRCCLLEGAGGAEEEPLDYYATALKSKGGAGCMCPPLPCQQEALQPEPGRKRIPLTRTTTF
- assay_details: SSTR4 I-125 somatostatin competition binding assay (CHO-K1 membranes)
- measurement_context: competition with I-125 somatostatin, membranes from CHO-K1 overexpressing SSTR4; read-out: SSTR4 Binding pIC50 (converted)
value_type: IC50 (nM)

In the examples that follow, each entry is paired with its recorded IC50.
{"compound": "CC(CN1CCC1)C(=O)NC(C)(C)c1ccccc1Cl (centres unmarked) [Example 132]", "target_of_assay": "SSTR4 (Homo sapiens, UniProt P31391)", "IC50 (nM)": 79.4}
{"compound": "COc1c(Cl)cccc1C(C)(C)NC(=O)C[C@@H]1CCCN1C [Example 112]", "target_of_assay": "SSTR4 (Homo sapiens, UniProt P31391)", "IC50 (nM)": 501}
{"compound": "CCN1CCCC1CC(=O)NC(C)(C)COc1ncccc1C (centres unmarked) [Example 62]", "target_of_assay": "SSTR4 (Homo sapiens, UniProt P31391)", "IC50 (nM)": 251}

[I] Cc1cccnc1OCC(C)(C)NC(=O)C[C@@H]1CCCN1C [Example 47]
[II] CC(C)(NC(=O)CCN1CCCC1)c1nccc2ccccc12 [Example 5]
Compare I and II by numeric IC50 and name the larger one. Respond with the label that goes with your answer.
I
(I: 398 nM, II: 50.1 nM)

###

- target_of_assay: SSTR4 (Homo sapiens, UniProt P31391)
- Construct: host or cells: CHO-K1
- assay_details: Inhibition of forskolin stimulated cAMP in CHO-K1 cells overexpressing SSTR4
- Assay type: cell-based
- measurement_context: read-out: SSTR4 Activity pEC50 (converted)
value_type: EC50 (µM)

Examples from the recorded data:
{"molecule": "C[C@H](NC(=O)C[C@H]1CCCN1C)c1ccc(F)cc1", "EC50, µM": 1}
{"molecule": "O=C(CCN1CCC1)NC(c1ccc(F)cc1)C(F)(F)F (single isomer, unassigned)", "EC50, µM": 0.002}
{"molecule": "Cc1ccc(C(NC(=O)C[C@@H]2CCCN2C)C(F)(F)F)cc1 (stereo partly shown)", "EC50, µM": 0.398}
{"molecule": "CCN1CCCC1CC(=O)NC(C)(C)c1nccc2occc12 (stereo not shown)", "EC50, µM": 0.0316}
{"molecule": "C[C@@H](CN1CCC1)C(=O)NC(C)(C)c1cccc(F)c1 (single isomer, unassigned)", "EC50, µM": 0.00398}
{"molecule": "COc1c(F)cccc1C(C)(C)NC(=O)[C@H](C)CN1CCC1 (single isomer, unassigned)", "EC50, µM": 0.002}
{"molecule": "CN1CCC[C@@H]1CC(=O)NC(C)(C)COc1ncccc1C(F)F", "EC50, µM": 0.1}
{"molecule": "Cc1cccc(C(C)(C)NC(=O)C[C@@H]2CCCN2C)c1F", "EC50, µM": 0.251}
{"molecule": "CC(C)[C@@H](CN1CCC1)C(=O)N[C@H](c1ccc(F)cc1)C(F)F", "EC50, µM": 0.0002}
{"molecule": "C[C@H](NC(=O)CC1CCCCN1C)c1ccc(F)cc1 (stereo partly shown)", "EC50, µM": 0.158}

[P] CN1CCC[C@@H]1CC(=O)NC(C)(C)c1cc(Cl)ccc1Cl
[Q] C[C@H](NC(=O)C[C@@H]1CCCN1C)c1ccc(F)cc1
Select the item with the higher value of EC50 from the options P and Q listed. Answer = label.
Q

[P] CN1CCC[C@H]1CC(=O)NC(C)(C)COc1ncccc1C(F)F
[Q] Cc1cccnc1OCC1(NC(=O)C[C@@H]2CCCN2C)CCC1
Hi, I'm comparing P with Q and wondering which one has the bigger number for EC50. Any idea? Please indicate the selected item by its label.
P
(P: 0.2 µM, Q: 0.1 µM)

[a] C[C@H](CN1CCC1)C(=O)NC(C)(C)c1ccccc1F (single isomer, unassigned)
[b] CN1CCC[C@@H]1CC(=O)NC(C)(C)c1cccc(F)c1Cl
[c] C[C@@H](CN1CCC1)C(=O)NC(C)(C)c1ccccc1Cl (single isomer, unassigned)
[d] CC(C)(COc1ncccc1C(F)(F)F)NC(=O)C[C@H]1CCCN1C1CC1
Sort entries by EC50 from minimum to maximum value. Output spec: a listing of the labels in the requested order.
c, a, d, b
(c: 0.00126 µM, a: 0.00794 µM, d: 0.0158 µM, b: 0.0631 µM)

[I] COc1c(Cl)cccc1C(C)(C)NC(=O)C[C@@H]1CCCN1C
[II] CN1CCCC[C@H]1CC(=O)NC(C)(C)c1nccc2occc12 (single isomer, unassigned)
[III] O=C(CCN1CCC1)NC(c1cccc(Cl)c1)C(F)(F)F (single isomer, unassigned) [Example 191]
Put the items in order so that reported EC50 rises from first to last. Kindly provide the labels arranged according to the requested ordering.
III, II, I
(III: 0.002 µM, II: 0.0251 µM, I: 0.0794 µM)

###

- target_of_assay: SSTR4 (Homo sapiens, UniProt P31391)
- Construct: host or cells: CHO-K1
- assay_details: Inhibition of forskolin stimulated cAMP in CHO-K1 cells overexpressing SSTR4
- Assay type: cell-based
- measurement_context: read-out: SSTR4 Activity pEC50 (converted)
value_type: EC50 (nM)

{"compound": "Cc1cccc2c(C(C)(C)NC(=O)CC3CCCN3C)nn(C)c12 (centres unmarked)", "target_of_assay": "SSTR4 (Homo sapiens, UniProt P31391)", "test_value": 6.31}
{"compound": "C[C@H](CN1CCC1)C(=O)N[C@H](c1ccccc1)C(F)F (single isomer, unassigned)", "target_of_assay": "SSTR4 (Homo sapiens, UniProt P31391)", "test_value": 0.158}
{"compound": "CN1CCCCC1CC(=O)NC(C)(C)c1nccc2occc12 (centres unmarked)", "target_of_assay": "SSTR4 (Homo sapiens, UniProt P31391)", "test_value": 20}

[P] CC(C)[C@@H](CN1CCC1)C(=O)N[C@H](c1cccc(F)c1)C(F)F
[Q] Cc1ccc(C(C)(C)NC(=O)[C@@H](C)CN2CCC2)cc1 (single isomer, unassigned)
Of P and Q , which shows the smaller EC50 value? Identify your selection by its label.
P

[1] CC(C)(COc1ncccc1C(F)(F)F)NC(=O)C[C@H]1CCCN1CCF
[2] Cc1cccc(C(C)(C)NC(=O)C[C@@H]2CCCN2C)c1Cl
[3] Cc1cccc2c(C(C)(C)NC(=O)CC3CCCCN3C)nccc12 (centres unmarked)
[4] C[C@H](CN1CCC1)C(=O)NC(C)(C)c1ccc(Cl)cc1 (single isomer, unassigned)
Ascending by EC50, please: list the compounds accordingly. Please, when replying, give the labels in the order that was requested.
3, 1, 2, 4

[P] CN1CCC[C@H]1CC(=O)NC(C)(C)[C@@H]1CCc2ccccc2O1 (single isomer, unassigned)
[Q] CC(C)(COc1ncccc1C(F)(F)F)NC(=O)C[C@@H]1CCCN1CCF
[R] Cc1c(F)cccc1C(C)(C)NC(=O)CCN1CCC1
[S] CN1CCC(F)(F)C1CC(=O)NC(C)(C)c1nccc2occc12 (centres unmarked)
[T] Cc1c(Cl)cccc1C(C)(C)NC(=O)C[C@@H]1CCCN1C
Arrange the 5 compounds from largest to smallest EC50. API: response body holds the labels in the requested order.
S, Q, T, P, R
